Reference for the values: patent US20260224563A1

- assay_comment: Pharmacokinetics of HC-7366 in male and female beagle dogs following IV and oral administration of HC-7366-K (plasma and urine, LC-MS/MS)
- Assay type: in vivo, Beagle Dog
- conditions_used: plasma; Female Beagle dog, PO 150 mg/kg, range n = 3; read-out: tmax
property_label: Tmax

Item CNC(=O)c1ncn2cc(-c3c(F)ccc(NS(=O)(=O)c4cc(Cl)cnc4OC)c3F)ncc12 : provide Tmax
30 to 60 min

* * *

- assay_comment: Pharmacokinetics of HC-7366 in male and female beagle dogs following IV and oral administration of HC-7366-K (plasma and urine, LC-MS/MS)
- Format: in vivo, Beagle Dog
- conditions_used: plasma; female beagle dog, oral 10 mg/kg; read-out: terminal half-life (t1/2) (converted)
property_label: half-life (h)
State the answer as a number, implicitly in h.

Specify reported half-life for the compound shown: CNC(=O)c1ncn2cc(-c3c(F)ccc(NS(=O)(=O)c4cc(Cl)cnc4OC)c3F)ncc12
14
